Target: T1, hOrai1-mOrai1 ECL2 (PASGAA) protein (human/mouse chimera, UniProt Q96D31 1-301)
T1 construct: also called Ch
T1 sequence (Q96D31 other isoform, or with tags, fused parts or gaps): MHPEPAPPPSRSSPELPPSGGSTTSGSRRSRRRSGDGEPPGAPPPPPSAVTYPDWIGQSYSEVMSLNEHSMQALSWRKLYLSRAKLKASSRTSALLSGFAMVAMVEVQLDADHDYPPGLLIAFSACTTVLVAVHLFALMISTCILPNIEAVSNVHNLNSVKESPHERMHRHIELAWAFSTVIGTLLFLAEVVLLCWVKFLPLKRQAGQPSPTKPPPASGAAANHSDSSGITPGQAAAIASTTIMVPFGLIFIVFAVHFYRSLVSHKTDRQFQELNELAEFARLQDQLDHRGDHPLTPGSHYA
Assay: FACS, 293EBNA
Design: concentration or dose not given beside the values
percent of control (POC) of FACS Geo Mean values by entry

What value of measured percent of control (POC) of FACS Geo Mean is listed for mAb 5A4.2 (antibody, human IgG2, lambda, V domains shown, fully human IgG2 lambda, Campaign 2) VH: QVQLVQSGAEVKKPGASVKVSCKASGYTFTDYYMNWVRQAPGQGLEWMGWINPNSGGTKYAQKFQGRVTMTRDTSIRTAYMELSRLRSDDTAVYYCSREYGGNSDWFDPWGQGTLVTVSS VL: QSVLTQPPSVSGAPGQRVTISCTGSSSNIGAGYDVHWYQQLPGTAPKLLIYGNSNRPSGVPDRFSGSKSGTSASLAITGLQAEDEADYYCQSYDNRLSDSVVIGGGTKLTVQG ?
< 1%

Continue with mAb 2D2.1 (antibody, human IgG2, lambda, V domains shown, fully human IgG2 lambda, Campaign 1; also called mAb 2D.1) VH: QVQLQQWGAGLLKPSETLSLTCAVYGGSFSGYYWSWIRQPPGKGLEWIGEIDHSGRINYNPALKSRLTISVDTSKNQFSLKLSSVTAADTAVYYCARAGSGGYEDWFDPWGQGTLVTVSS VL: QSVLTQPPSVSGAPGQRVTISCTGSSSNIGAGYNVHWYQQFPRTDPKLLIYVYNIRPSGVPDRFSGSRSGTSASLAITGLQTEDEADYYCQSYDSSLSGVVFGGGTKLTVLG
< 1%

Also, mAb 5B5.2 (antibody, human IgG2, lambda, V domains shown, fully human IgG2 lambda, Campaign 2; same chains as 5B5.1) VH: QVQLVQSGAEVKKPGASVKVSCKASGYTFTDYYINWVRQAPGQGLEWMGWINPNSGGTDYAQKFQGRVTMTRDTSIRTAYMELNRLTSDDTAVYYCAREYGGYEDWFDPWGQGTLVTVSS VL: QSVLTQPPSVSGAPGQRVTISCTGSNSNIGAGFDVHWYQQLPGTVPKLLIYGNNNRPSGVPDRFSGSKSGTSASLAITGLQAEDEADYYCQSYDSRLTVFGGGTKLTVLG please.
< 1%
